- PROCEDURE TEXT: Drug excretion in Wistar rat urine at 1 mg/kg, iv measured upto 48 hrs
- Assay type: ADME, organism-based
- CONDITION: read-out: Drug excretion
EXPERIMENTAL READOUT: dose excreted at 48 h (%)
Give bare numbers, in %.

Can you share its dose excreted at 48 h? I mean this compound: COc1cc([Se]C(F)(F)F)c(OC)cc1CCN.Cl
0.07

---

- PROCEDURE TEXT: Renal clearance in beagle dog at 0.4 mg/kg, iv measured upto 24 hrs
- Assay type: ADME, organism-based, Canis lupus familiaris
- CONDITION: in vivo
EXPERIMENTAL READOUT: CL renal at 24 h (mL/min/kg)
One number for each entry, in mL/min/kg.

Can you share its CL renal at 24 h? I mean this molecule: COc1cc([Se]C(F)(F)F)c(OC)cc1CCN.Cl
0.6

---

- PROCEDURE TEXT: MRTlast in Wistar rat plasma at 1 mg/kg, iv measured upto 48 hrs
- Assay type: ADME, organism-based
EXPERIMENTAL READOUT: MRT last at 48 h (min)
One number for each entry, in min.

Can you share its MRT last at 48 h? I mean this molecule: COc1cc([Se]C(F)(F)F)c(OC)cc1CCN.Cl
37.2

---

- PROCEDURE TEXT: Tmax in beagle dog at 2 mg/kg, po measured upto 24 hrs
- Format: ADME, organism-based, Canis lupus familiaris
- CONDITION: in vivo
EXPERIMENTAL READOUT: Tmax
Reply with the number, then its unit.

Can you share its Tmax? I mean this compound: COc1cc([Se]C(F)(F)F)c(OC)cc1CCN.Cl
2 h

---

- PROCEDURE TEXT: Cmax in male Sprague-Dawley rat CSF at 1 mg/kg, iv measured upto 8 hrs by LC-MS/MS analysis
- Type: ADME, organism-based, Cerebrospinal fluid
EXPERIMENTAL READOUT: Cmax (ng/mL)
Numbers only, in ng/mL.

Can you share its Cmax? I mean this compound: COc1cc([Se]C(F)(F)F)c(OC)cc1CCN.Cl
48.7

---

- PROCEDURE TEXT: Initial plasma concentration in Wistar rat at 1 mg/kg, iv measured upto 48 hrs
- Type: ADME, organism-based
EXPERIMENTAL READOUT: C0 at 48 h
Reply with the number, then its unit.

Can you share its C0 at 48 h? I mean this molecule: COc1cc([Se]C(F)(F)F)c(OC)cc1CCN.Cl
0.0672 µg/mL

---

- PROCEDURE TEXT: AUClast in male Sprague-Dawley rat brain at 1 mg/kg, iv measured upto 8 hrs by LC-MS/MS analysis
- Format: ADME, organism-based
EXPERIMENTAL READOUT: AUC(0-t) at 8 h
Reply with the number, then its unit.

Can you share its AUC(0-t) at 8 h? I mean this compound: COc1cc([Se]C(F)(F)F)c(OC)cc1CCN.Cl
3220 ng·h/mL

---

- PROCEDURE TEXT: AUCinf in male Sprague-Dawley rat plasma at 1 mg/kg, iv measured upto 8 hrs by LC-MS/MS analysis
- Format: ADME, organism-based
EXPERIMENTAL READOUT: AUC(0-inf) (ng·h/mL)
Numbers only, in ng·h/mL.

Can you share its AUC(0-inf)? I mean this molecule: COc1cc([Se]C(F)(F)F)c(OC)cc1CCN.Cl
210
